Entries and their measured EC50 follow.
- experimental-target: human GPR119 (hGPR119) (Homo sapiens)
- procedure-text: cAMP accumulation assay in CHO-K1 cells stably expressing hGPR119
- condition: cAMP HTRF, 60 minutes
result-type: EC50

1) CCOc1cnc(N2CCC(CCCOc3cc(F)c(CC(=O)N4CC(CNC[C@H](O)[C@@H](O)[C@H](O)[C@H](O)CO)C4)c(F)c3)CC2)nc1; ≤ 100 nM
2) CCCc1cnc(N2CCC(CCCOc3ccc(CC(=O)N4CC(CNC(CO)(CO)CO)C4)c(F)c3)CC2)nc1; ≤ 100 nM
3) O=C(Cc1ccc(OCCCC2CCN(c3ncc(Cl)cn3)CC2)cc1F)N1CC(CN[C@@H]2C[C@H](O)[C@@H](O)[C@H]2O)C1 (racemic); 100 to 1000 nM
4) O=C(NCCO[C@H]1O[C@H](CO)[C@@H](O)[C@H](O)[C@@H]1O)C1CN(C(=O)Cc2ccc(OCCCC3CCN(c4ncc(Cl)cn4)CC3)cc2F)C1 (racemic); 100 to 1000 nM
5) O=C(Cc1ccc(OCCCC2CCN(c3ncc(Cl)cn3)CC2)cc1F)N1CC(CNCC(O)(CO)CO)C1; ≤ 100 nM
6) O=C(Cc1ccc(OCCCC2CCN(c3ncc(Cl)cn3)CC2)cc1F)N1CC(CNC[C@@H](O)[C@H](O)[C@H](O)CO)C1; ≤ 100 nM

----------
- experimental-target: human GPR119 (hGPR119) (Homo sapiens)
- Sequence (Q8TDV5 1-335): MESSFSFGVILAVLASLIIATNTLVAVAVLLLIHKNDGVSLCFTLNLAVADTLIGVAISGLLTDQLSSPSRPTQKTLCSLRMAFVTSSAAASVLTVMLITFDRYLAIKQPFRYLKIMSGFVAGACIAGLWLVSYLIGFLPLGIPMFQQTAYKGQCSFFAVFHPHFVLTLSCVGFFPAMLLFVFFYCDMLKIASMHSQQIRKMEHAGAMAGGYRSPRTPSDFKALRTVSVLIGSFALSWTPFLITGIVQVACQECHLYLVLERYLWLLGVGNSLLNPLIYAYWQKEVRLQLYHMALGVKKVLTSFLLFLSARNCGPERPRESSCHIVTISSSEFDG
- procedure-text: cAMP accumulation assay in CHO-K1 cells stably expressing hGPR119
- condition: cAMP HTRF, 60 minutes
- Procedure: CHO-K1 cells stably expressing human GPR119 (hGPR119) were prepared by transfection of a GPR119-carrying plasmid using Lipofectamine 2000 (following manufacturer instructions). […] Assay-ready frozen (ARF) cells were prepared and used throughout the study. […] RT-FRET was measured using a ClarioSTAR plate reader, calculating the ratio between emissions at 665 nm and 620 nm (HTRF ratio). […] EC50 and Max activity values were determined using a standard 4-parameter fit.
pEC50: −log10 of the molar value.
result-type: pEC50

1. O=C(NC[C@H](O)[C@@H](O)[C@H](O)[C@H](O)CO)C1CN(C(=O)Cc2ccc(OCCCC3CCN(c4ncc(Cl)cn4)CC3)cc2F)C1 (racemic); 6.00 to 7.00
2. O=C(CC1CN(C(=O)Cc2c(F)cc(OCCCC3CCN(c4ncc(Cl)cn4)CC3)cc2F)C1)NCC(O)(CO)CO; ≥ 7.00
3. O=C(Cc1ccc(OCCCC2CCN(c3ncc(Cl)cn3)CC2)cc1F)N1CC(O)(CNC[C@H](O)[C@H](O)[C@H](O)CO)C1; ≥ 7.00
4. O=C(CC1CN(C(=O)Cc2ccc(OCCCC3CCN(c4ncc(Cl)cn4)CC3)cc2F)C1)NCCCCS(=O)(=O)O; 6.00 to 7.00
5. O=C(Cc1ccc(OCCCC2CCN(c3ncc(Cl)cn3)CC2)cc1F)N1CC(CCNC[C@H](O)[C@@H](O)[C@H](O)[C@H](O)CO)C1; 6.00 to 7.00
6. CCCc1cnc(N2CCC(CCCOc3cc(F)c(CC(=O)N4CC(CNC(CO)(CO)CO)C4)c(F)c3)CC2)nc1; ≥ 7.00
7. O=C(Cc1ccc(OCCCC2CCN(c3ncc(Cl)cn3)CC2)cc1F)N1CC(CNC(CO)(CO)CO)C1; ≥ 7.00
8. O=C(Cc1ccc(OCCCC2CCN(c3ncc(Cl)cn3)CC2)cc1F)N1CC(CCNCC(O)(CO)CO)C1; 6.00 to 7.00
9. COCc1cnc(N2CCC(CCCOc3cc(F)c(CC(=O)N4CC(CNC[C@H](O)[C@@H](O)[C@H](O)[C@H](O)CO)C4)c(F)c3)CC2)nc1; 6.00 to 7.00
10. O=C(Cc1ccc(OCCCC2CCN(c3ncc(Cl)cn3)CC2)cc1F)N1CC(CNCC(CO)CO)C1; ≥ 7.00
11. CCOc1cnc(N2CCC(CCCOc3ccc(CC(=O)N4CC(CNC[C@H](O)[C@@H](O)[C@H](O)[C@H](O)CO)C4)c(F)c3)CC2)nc1 (racemic); 6.00 to 7.00
12. O=C(Cc1ccc(OCCCC2CCN(c3ncc(Cl)cn3)CC2)cc1F)N1CC(CN2C[C@H](O)[C@@H](O)C2)C1 (stereo in doubt); ≥ 7.00
13. CCc1cnc(N2CCC(CCCOc3ccc(CC(=O)N4CC(CNCC(O)(CO)CO)C4)c(F)c3)CC2)nc1; ≥ 7.00

----------
Listed next: entries and their corresponding EC50.
- experimental-target: human GPR119 (hGPR119) (Homo sapiens, UniProt Q8TDV5)
- Construct: expressed in transfected cells; host or cells: CHO-K1
- procedure-text: cAMP accumulation assay in CHO-K1 cells stably expressing hGPR119
- Type: cell-based
- condition: cAMP HTRF, 60 minutes
result-type: EC50

1) COC(=O)c1cnc(N2CCC(CCCOc3ccc(CC(=O)N4CC(CNC[C@H](O)[C@@H](O)[C@H](O)[C@H](O)CO)C4)c(F)c3)CC2)nc1 [Compound A54]; 100 to 1000 nM
2) O=C(Cc1ccc(OCCCC2CCN(c3ncc(Cl)cn3)CC2)cc1F)N1CC(CNCCOCCOCCO)C1 [Compound A23]; ≤ 100 nM
3) O=C(CC1CN(C(=O)Cc2ccc(OCCCC3CCN(c4ncc(Cl)cn4)CC3)cc2F)C1)NCCCS(=O)(=O)O [Compound A69]; 100 to 1000 nM
4) COCc1cnc(N2CCC(CCCOc3ccc(CC(=O)N4CC(CNC[C@H](O)[C@@H](O)[C@H](O)[C@H](O)CO)C4)c(F)c3)CC2)nc1 [Compound A53]; 100 to 1000 nM
5) O=C(Cc1ccc(OCCCC2CCN(c3ncc(Cl)cn3)CC2)cc1F)N1CC(CCNC(CO)CO)C1 [Compound A26]; ≤ 100 nM
6) O=C(Cc1ccc(OCCCC2CCN(c3ncc(Cl)cn3)CC2)cc1F)N1CC(CNC[C@H](O)[C@H](O)[C@H](O)CO)C1 [Compound A60]; ≤ 100 nM
7) O=C(Cc1ccc(OCCCC2CCN(c3ncc(Cl)cn3)CC2)cc1F)N1CC(CCNC[C@H](O)[C@H](O)[C@H](O)CO)C1 [Compound A59]; ≤ 100 nM
8) CCc1cnc(N2CCC(CCCOc3ccc(CC(=O)N4CC(CNCCNC(=O)NC(CO)(CO)CO)C4)c(F)c3)CC2)nc1 [Compound A35]; ≤ 100 nM
9) COCc1cnc(N2CCC(CCCOc3ccc(CC(=O)N4CC(C(=O)NC[C@H](O)[C@@H](O)[C@H](O)[C@H](O)CO)C4)c(F)c3)CC2)nc1 (racemic) [Compound A12]; 100 to 1000 nM
10) O=C(CC1CN(C(=O)Cc2ccc(OCCCC3CCN(c4ncc(Cl)cn4)CC3)cc2F)C1)NC(CO)(CO)CO [Compound A7]; 100 to 1000 nM
11) CCc1cnc(N2CCC(CCCOc3cc(F)c(CC(=O)N4CC(CNCC(O)(CO)CO)C4)c(F)c3)CC2)nc1 [Compound A37]; ≤ 100 nM
12) O=C(NC(CO)(CO)CO)C1CN(C(=O)Cc2c(F)cc(OCCCC3CCN(c4ncc(Cl)cn4)CC3)cc2F)C1 [Compound A1]; ≤ 100 nM
13) O=C(CC1(O)CN(C(=O)Cc2ccc(OCCCC3CCN(c4ncc(Cl)cn4)CC3)cc2F)C1)NCC(CO)(CO)CO [Compound A71]; ≤ 100 nM
14) O=C(CC1CN(C(=O)Cc2ccc(OCCCC3CCN(c4ncc(Cl)cn4)CC3)cc2F)C1)NCC(O)(CO)CO [Compound A8]; 100 to 1000 nM

----------
- experimental-target: human GPR40 (Homo sapiens)
- Sequence (O14842 whole entry): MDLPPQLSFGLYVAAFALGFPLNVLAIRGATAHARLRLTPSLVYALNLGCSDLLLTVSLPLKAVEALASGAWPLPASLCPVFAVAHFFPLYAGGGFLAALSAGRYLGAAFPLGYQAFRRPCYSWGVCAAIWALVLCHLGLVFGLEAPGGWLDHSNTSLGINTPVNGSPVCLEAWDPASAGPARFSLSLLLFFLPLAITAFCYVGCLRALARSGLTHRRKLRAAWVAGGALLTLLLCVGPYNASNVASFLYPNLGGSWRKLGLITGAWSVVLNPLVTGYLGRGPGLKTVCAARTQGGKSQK
- procedure-text: Inositol phosphate accumulation assay in CHO-K1 cells expressing human GPR40
- condition: CHO-K1 human GPR40, IP1 HTRF, 90 min
pEC50: −log10 of the molar value.
As shown below, each of these compounds has a reported pEC50 value.
result-type: pEC50

1) CC[C@@H](Cc1cccc(OCC2CCN(c3cc(OC)ccc3CCCC(C)(C)C)CC2)c1)P(C)(=O)O; 6.00 to 6.60
2) COc1ccc(F)c([C@H]2CC[C@H](COc3cccc([C@H](C[P@@](C)(=O)O)C4CC4)c3)CC2)c1 (single isomer, unassigned); ≥ 7.30
3) COc1ccc(CCCC(C)(C)C)c(N2CCC(COc3cc([C@@H](CP(C)(=O)O)C4CC4)ccn3)CC2)c1; ≥ 7.30
4) COc1ccc(CCCC(C)(C)C)c(N2CCC(COc3cc([C@H](C)CP(C)(=O)O)ccn3)CC2)c1; 6.00 to 6.60
5) COc1ccc(CCCC(C)(C)C)c(N2CCC(COc3cccc([C@@H](CP(C)(=O)O)C4CC4)c3)CC2)c1; ≥ 7.30
6) COc1ccc(CCCC(C)(C)C)c(N2CCC(COc3cc([C@@H](C)CP(C)(=O)O)ccn3)CC2)c1; ≥ 7.30
7) CC[C@H](Cc1cccc(OCC2CCN(c3cc(OC)ccc3CCCC(C)(C)C)CC2)c1)P(C)(=O)O; 6.00 to 6.60

Reference for the values: patent US20260191858A1
